target: DEP domain-containing mTOR-interacting protein (Homo sapiens, UniProt Q8TB45); assay: Inhibition of DEPTOR in human RPMI8226 cells assessed as induction of mTORC1 activation at 0.5 uM incubated for 6 hrs co-immunoprecipitation assay; assay type: cell-based
Sequence (Q8TB45 whole entry, the tested form may be a part): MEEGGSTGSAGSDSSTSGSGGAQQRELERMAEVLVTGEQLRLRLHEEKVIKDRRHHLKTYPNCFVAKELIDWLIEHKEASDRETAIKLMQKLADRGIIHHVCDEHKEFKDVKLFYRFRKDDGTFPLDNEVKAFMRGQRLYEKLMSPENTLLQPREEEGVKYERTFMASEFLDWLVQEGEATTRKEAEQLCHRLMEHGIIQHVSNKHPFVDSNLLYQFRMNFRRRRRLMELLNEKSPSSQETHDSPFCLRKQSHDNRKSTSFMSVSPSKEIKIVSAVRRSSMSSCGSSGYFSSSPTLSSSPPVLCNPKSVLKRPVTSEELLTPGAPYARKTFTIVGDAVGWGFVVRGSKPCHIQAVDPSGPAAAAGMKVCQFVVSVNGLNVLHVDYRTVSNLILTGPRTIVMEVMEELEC
Activity calls are given as the source filed them. The rule behind the calls is not given here.
Classes used: active, inactive

SMI: NN=C1C(Cl)=C(Cl)C(Cl)=C1Cl
CAT: inactive

SMI: FC(F)(F)c1cccc(NN=C2C(Cl)=C(Cl)C(Cl)=C2Cl)c1
CAT: active

SMI: Fc1ccc(NN=C2C(Cl)=C(Cl)C(Cl)=C2Cl)cc1
CAT: inactive

SMI: CC(C)(C)OC(=O)NN=C1C(Cl)=C(Cl)C(Cl)=C1Cl
CAT: inactive

----------
test: Therapeutic index, ratio of IC50 for cytotoxicity against human PBL cells incubated for 48 hrs by MTT assay to IC50 for cytotoxicity against human MM1S cells incubated for 48 hrs by MTT assay; assay type: toxicity, cell-based; settings: PBL cells versus MM1S cells, read-out: Ratio IC50

SMI: O=C(c1ccc(F)cc1)N(N=C1C(Cl)=C(Cl)C(Cl)=C1Cl)C(=O)c1ccc(F)cc1
selectivity ratio at 48 h: 10
--
SMI: FC(F)(F)c1cccc(NN=C2C(Cl)=C(Cl)C(Cl)=C2Cl)c1
selectivity ratio at 48 h: 136
--
SMI: CC(C)(C)C(=O)NN=C1C(Cl)=C(Cl)C(Cl)=C1Cl
selectivity ratio at 48 h: 14
--
SMI: Fc1ccc(NN=C2C(Cl)=C(Cl)C(Cl)=C2Cl)cc1
selectivity ratio at 48 h: 33
--
SMI: CC(C)(C)OC(=O)NN=C1C(Cl)=C(Cl)C(Cl)=C1Cl
selectivity ratio at 48 h: 45.5
--
SMI: NN=C1C(Cl)=C(Cl)C(Cl)=C1Cl
selectivity ratio at 48 h: 14.3

This collection of values is drawn from ChEMBL document CHEMBL4417640.
